- Procedure Summary: Terminal plasma and brain concentrations after behavioral testing
- Assay type: in vivo, rat
- Test Conditions: mean terminal plasma concentration at the lowest effective dose in the rat formalin test
Label 1.0 when Effective [plasma] is strictly below 4 µM; otherwise label 0.0.

Check if Effective [plasma] falls below 4 µM for `CC(=O)Nc1cccc(Nc2ncnc(N3CC(Oc4ccc(F)cc4)C3)n2)c1C` . 1.0

Check if Effective [plasma] falls below 4 µM for `CC(=O)Nc1cccc(Nc2ncnc(N3CCC(OCc4ccc(F)c(F)c4)CC3)n2)c1C` . 1.0

Check if Effective [plasma] falls below 4 µM for `CC(=O)Nc1cccc(Nc2ncnc(N3CCC(Oc4ccc(Cl)c(C)c4)CC3)n2)c1C` . 0.0

Check if Effective [plasma] falls below 4 µM for `CC(=O)Nc1cccc(Nc2ncnc(N3CCC(OCc4ccc(OC(F)(F)F)cc4)CC3)n2)c1C` . 1.0

Check if Effective [plasma] falls below 4 µM for `CC(=O)Nc1cccc(Nc2ncnc(N3CCc4cc(OC(F)(F)F)ccc4C3)n2)c1` . 1.0

Check if Effective [plasma] falls below 4 µM for `CC(=O)Nc1cc(Nc2ncnc(N3CC=C(c4ccc(C#N)cc4)CC3)n2)ccc1F` . 0.0

Check if Effective [plasma] falls below 4 µM for `CC(=O)Nc1cccc(Nc2ncnc(N3CCC(Oc4ccc(Cl)cc4)CC3)n2)c1C` . 1.0

###

- Procedure Summary: Terminal plasma and brain concentrations after behavioral testing
- Format: in vivo, rat
- Test Conditions: rat, brain, po; formalin test, 60 mg/kg p.o., mean, n = 4
Experimental Readout: concentration at 160 min (nM)
Just the number please, in nM, no unit attached.

In one line, give reported concentration at 160 min of the entry CC(=O)Nc1cccc(Nc2ncnc(N3CCC(Oc4ccc(Cl)cc4)CC3)n2)c1C [Compound A] . 1540

###

- Target System: hNav1.7 (Homo sapiens, UniProt Q15858)
- Construct: expressed in transfected cells; host or cells: HEK 293
- Sequence (Q15858 whole entry): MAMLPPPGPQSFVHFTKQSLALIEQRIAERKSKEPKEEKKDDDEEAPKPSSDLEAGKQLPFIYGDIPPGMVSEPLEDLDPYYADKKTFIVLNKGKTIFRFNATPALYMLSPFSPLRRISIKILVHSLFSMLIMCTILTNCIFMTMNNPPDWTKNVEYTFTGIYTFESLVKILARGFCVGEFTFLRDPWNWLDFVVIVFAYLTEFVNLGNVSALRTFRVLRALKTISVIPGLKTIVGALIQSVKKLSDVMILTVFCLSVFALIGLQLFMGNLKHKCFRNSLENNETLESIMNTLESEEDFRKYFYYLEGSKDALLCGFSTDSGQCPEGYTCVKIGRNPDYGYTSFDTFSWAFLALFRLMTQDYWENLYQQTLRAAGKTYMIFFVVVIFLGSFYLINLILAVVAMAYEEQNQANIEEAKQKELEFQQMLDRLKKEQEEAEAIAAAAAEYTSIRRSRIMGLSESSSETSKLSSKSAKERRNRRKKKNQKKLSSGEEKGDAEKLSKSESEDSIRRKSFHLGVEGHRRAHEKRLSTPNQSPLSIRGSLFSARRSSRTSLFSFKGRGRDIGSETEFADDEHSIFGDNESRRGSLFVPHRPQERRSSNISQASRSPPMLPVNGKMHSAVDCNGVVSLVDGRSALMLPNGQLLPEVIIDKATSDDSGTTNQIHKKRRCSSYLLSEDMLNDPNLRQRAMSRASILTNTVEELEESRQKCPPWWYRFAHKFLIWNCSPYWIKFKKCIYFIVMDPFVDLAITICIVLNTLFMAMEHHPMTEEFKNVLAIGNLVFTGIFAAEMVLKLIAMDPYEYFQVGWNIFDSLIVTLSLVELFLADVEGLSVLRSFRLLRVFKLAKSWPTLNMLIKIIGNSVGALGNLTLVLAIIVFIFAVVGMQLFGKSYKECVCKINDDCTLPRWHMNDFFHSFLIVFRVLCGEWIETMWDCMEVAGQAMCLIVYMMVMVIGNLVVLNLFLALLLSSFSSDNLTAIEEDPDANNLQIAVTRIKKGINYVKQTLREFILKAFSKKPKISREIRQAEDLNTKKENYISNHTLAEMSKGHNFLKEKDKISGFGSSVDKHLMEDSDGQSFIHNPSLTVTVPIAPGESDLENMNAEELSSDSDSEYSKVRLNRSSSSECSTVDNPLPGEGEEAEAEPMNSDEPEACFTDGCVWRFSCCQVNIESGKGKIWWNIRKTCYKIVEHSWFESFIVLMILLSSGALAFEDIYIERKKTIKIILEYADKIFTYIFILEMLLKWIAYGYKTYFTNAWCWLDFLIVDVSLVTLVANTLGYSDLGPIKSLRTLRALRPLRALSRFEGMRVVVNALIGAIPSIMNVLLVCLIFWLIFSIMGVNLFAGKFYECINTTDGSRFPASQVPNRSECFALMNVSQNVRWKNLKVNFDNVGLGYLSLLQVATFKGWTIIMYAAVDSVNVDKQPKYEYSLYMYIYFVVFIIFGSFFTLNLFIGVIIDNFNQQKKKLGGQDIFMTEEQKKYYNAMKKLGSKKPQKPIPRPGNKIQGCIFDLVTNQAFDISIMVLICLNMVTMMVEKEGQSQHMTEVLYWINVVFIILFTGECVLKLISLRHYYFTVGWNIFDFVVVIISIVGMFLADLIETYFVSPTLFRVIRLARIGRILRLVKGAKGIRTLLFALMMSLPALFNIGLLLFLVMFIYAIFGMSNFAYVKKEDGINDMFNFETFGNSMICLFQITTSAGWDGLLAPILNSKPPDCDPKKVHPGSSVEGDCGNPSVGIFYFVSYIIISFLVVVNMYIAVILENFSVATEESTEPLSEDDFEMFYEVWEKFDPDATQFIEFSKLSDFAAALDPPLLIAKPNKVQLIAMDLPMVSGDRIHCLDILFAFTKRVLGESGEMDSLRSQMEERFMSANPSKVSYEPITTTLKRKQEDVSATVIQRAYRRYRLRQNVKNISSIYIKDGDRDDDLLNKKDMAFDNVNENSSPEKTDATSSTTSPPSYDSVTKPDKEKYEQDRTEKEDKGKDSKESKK
- Procedure Summary: Manual whole cell patch clamp electrophysiology on HEK 293 cells stably expressing hNav1.7
- Format: cell-based
- Test Conditions: non-inactivated human Nav1.7; holding voltage -140 mV or occasionally -120 mV; peak concentration tested 10 μM; read-out: IC50 (μM) Non-inactivated
Experimental Readout: IC50

In one line, give reported IC50 of the entry CC(=O)Nc1cccc(Nc2ncnc(N3CCc4cc(OC(F)(F)F)ccc4C3)n2)c1 [Compound F] . > 10 µM

In one line, give reported IC50 of the entry CC(=O)Nc1cccc(Nc2ncnc(N3CCC(Oc4ccc(Cl)c(C)c4)CC3)n2)c1C [Compound B] . > 10 µM

In one line, give reported IC50 of the entry CC(=O)Nc1cccc(Nc2ncnc(N3CCC(Oc4ccc(Cl)c(F)c4)CC3)n2)c1C [Compound G] . 6.6 µM

In one line, give reported IC50 of the entry CC(=O)Nc1cccc(Nc2ncnc(N3CCC(OCc4ccc(F)c(F)c4)CC3)n2)c1C [Compound D] . > 10 µM

In one line, give reported IC50 of the entry CC(=O)Nc1cccc(Nc2ncnc(N3CCC(Oc4ccc(Cl)cc4)CC3)n2)c1C [Compound A] . > 10 µM

In one line, give reported IC50 of the entry CC(=O)Nc1cccc(Nc2ncnc(N3CC(Oc4ccc(F)cc4)C3)n2)c1C [Compound C] . > 10 µM

In one line, give reported IC50 of the entry CC(=O)Nc1cc(Nc2ncnc(N3CC=C(c4ccc(C#N)cc4)CC3)n2)ccc1F [Compound E] . 2.1 µM

###

- Test system: naïve rats
- Procedure Summary: Open field activity (basic movement)
- Type: in vivo, rat
- Test Conditions: 10 mg/kg p.o.; formalin-naïve rats; negative value = increase
Can you tell me Decrease in basic movement for the items I'm about to list?
Just the number please, in %, no unit attached.

In one line, give reported Decrease in basic movement of the entry `CC(=O)Nc1cccc(Nc2ncnc(N3CCc4cc(OC(F)(F)F)ccc4C3)n2)c1` . 11

In one line, give reported Decrease in basic movement of the entry `CC(=O)Nc1cc(Nc2ncnc(N3CC=C(c4ccc(C#N)cc4)CC3)n2)ccc1F` . 2

In one line, give reported Decrease in basic movement of the entry `CC(=O)Nc1cccc(Nc2ncnc(N3CC(Oc4ccc(F)cc4)C3)n2)c1C` . 8.5

In one line, give reported Decrease in basic movement of the entry `CC(=O)Nc1cccc(Nc2ncnc(N3CCC(OCc4ccc(OC(F)(F)F)cc4)CC3)n2)c1C` . 11

In one line, give reported Decrease in basic movement of the entry `CC(=O)Nc1cccc(Nc2ncnc(N3CCC(Oc4ccc(Cl)cc4)CC3)n2)c1C` . -4.2

###

- Procedure Summary: Terminal plasma and brain concentrations after behavioral testing
- Type: in vivo, rat
- Test Conditions: brain and plasma; rat; ratio of concentrations measured following the formalin test
Can you tell me Kp for the items I'm about to list?

In one line, give reported Kp of the entry `CC(=O)Nc1cccc(Nc2ncnc(N3CCC(OCc4ccc(OC(F)(F)F)cc4)CC3)n2)c1C` . 0.3

In one line, give reported Kp of the entry `CC(=O)Nc1cccc(Nc2ncnc(N3CCC(Oc4ccc(Cl)cc4)CC3)n2)c1C` . 0.1

In one line, give reported Kp of the entry `CC(=O)Nc1cccc(Nc2ncnc(N3CCC(Oc4ccc(Cl)c(F)c4)CC3)n2)c1C` . 0.09

In one line, give reported Kp of the entry `CC(=O)Nc1cccc(Nc2ncnc(N3CCC(OCc4ccc(F)c(F)c4)CC3)n2)c1C` . 0.19

In one line, give reported Kp of the entry `CC(=O)Nc1cccc(Nc2ncnc(N3CCc4cc(OC(F)(F)F)ccc4C3)n2)c1` . 0.33

In one line, give reported Kp of the entry `CC(=O)Nc1cccc(Nc2ncnc(N3CC(Oc4ccc(F)cc4)C3)n2)c1C` . 0.03

In one line, give reported Kp of the entry `CC(=O)Nc1cc(Nc2ncnc(N3CC=C(c4ccc(C#N)cc4)CC3)n2)ccc1F` . 0.49
